Target: Nrf2-Keap1 complex (Homo sapiens)
Sequence (Q14145 whole entry, one chain of several): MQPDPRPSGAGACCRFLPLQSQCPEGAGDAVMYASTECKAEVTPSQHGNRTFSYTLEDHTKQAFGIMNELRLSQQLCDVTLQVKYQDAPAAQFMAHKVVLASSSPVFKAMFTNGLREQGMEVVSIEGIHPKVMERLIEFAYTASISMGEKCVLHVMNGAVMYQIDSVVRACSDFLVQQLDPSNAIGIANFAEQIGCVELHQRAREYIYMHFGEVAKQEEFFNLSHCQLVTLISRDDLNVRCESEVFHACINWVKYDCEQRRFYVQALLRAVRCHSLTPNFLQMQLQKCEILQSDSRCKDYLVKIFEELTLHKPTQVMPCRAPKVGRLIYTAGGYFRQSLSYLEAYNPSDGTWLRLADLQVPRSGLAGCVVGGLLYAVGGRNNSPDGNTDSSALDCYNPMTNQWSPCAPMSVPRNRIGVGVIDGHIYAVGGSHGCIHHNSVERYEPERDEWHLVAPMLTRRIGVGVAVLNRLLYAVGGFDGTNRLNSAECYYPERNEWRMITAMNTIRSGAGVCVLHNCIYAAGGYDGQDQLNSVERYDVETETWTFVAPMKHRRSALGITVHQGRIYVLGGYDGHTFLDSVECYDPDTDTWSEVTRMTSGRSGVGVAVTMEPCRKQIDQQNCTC
Experiment: cell-based
Format: cell-based
ASSAY_READOUT: hit strength in the screen (words)

Sample `O=[N+]([O-])c1cccc2c(Br)n[nH]c12` , system: Nrf2-Keap1 complex (Homo sapiens). Its hit strength in the screen (words) is modest hits

Sample Nc1ncnc2c1ncn2[C@@H]1O[C@H](CO)[C@@H](O)[C@H]1O [ADENOSINE, reference compound] , system: Nrf2-Keap1 complex (Homo sapiens). Its hit strength in the screen (words) is modest hits

Sample Cn1cnc([N+](=O)[O-])c1Sc1[nH]cnc2ncnc1-2 [AZATHIOPRINE, reference compound] , system: Nrf2-Keap1 complex (Homo sapiens). Its hit strength in the screen (words) is modest hits
